Reference for the values: patent US20180251562A1

Molecular target: T1, cynomolgus insulin receptor (INSR) on CHOK1 cells (cyno, UniProt A0A7N9D6H3 48-1390)
T1 construct: whole, on cells; CHOK1 cells over-expressing cyno INSR; also called cynomologous INSR ortholog; monkey INSR
Experiment: flow cytometry on CHOK1 cells expressing the INSR ortholog; IgG, anti-human IgG APC detection
attributeMeasured: EC50 (nM)
Number only, in nM; omit the unit.

Answered examples (3):
binder | EC50, nM
XPA.15.247.2.014 IgG (antibody, V domains shown, Tested as IgG; also called XPA.15.247.014) VH: EVQLVETGGGVVQPGRSLRLSCAASGFTFSSYAMHWVRQAPGKGLEWVAVISYSGSNKYYADSVKGRFTISRDNSKNTLYLQMNSLRAEDTAVYYCARHEWGFGFDYWGQGTTVTVSS VL: DVVMTQSPLSLPVTLGQPASISCRSSQSLVYGDGNTYLNWFQQRPGQSPRRLIYKVSKRDSGVPDRFSGSGSGTDFTLKISRVEAEDVGVYYCMQGTYWPMTFGGGTKLEIKR | 1.1
XPA.15.247.2.011 IgG (antibody, V domains shown, Tested as IgG; also called XPA.15.247.011) VH: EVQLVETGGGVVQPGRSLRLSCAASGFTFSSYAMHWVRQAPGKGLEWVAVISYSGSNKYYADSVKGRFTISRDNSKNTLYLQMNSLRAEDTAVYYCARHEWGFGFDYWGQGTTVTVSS VL: DVVMTQSPLSLPVTLGQPASISCRSSHSLVYGDGNTYLNWFHQRPGQSPRRLIYKVSNRDSGVPDRFAGSGSGTDFTLKISRVEADDFGVFYCMQGTHWPYTFGQGTKLEIKR | 3.3
XPA.15.247 parent antibody (IgG) (antibody, V domains shown, Tested as IgG; also called XPA.15.247 antibody) VH: EVQLVETGGGVVQPGRSLRLSCAASGFTFSSYAMHWVRQAPGKGLEWVAVISYDGSNKYYADSVKGRFTISRDNSKNTLYLQMNSLRAEDTAVYYCARHEWGFGMDVWGQGTTVTVSS VL: DVVMTQSPLSLSVTLGQPASISCRSSLSLVYGDENTYLNWFQQRPGQSPRRLLYKVSDRDSGVPDRFSGSGSGTDFTLKISRVEADDVGVYYCMQGTHWPYTFGQGTKLEIKR | 13.6

binder XPA.15.247.2.018 IgG (antibody, V domains shown, Tested as IgG; also called XPA.15.247.2.018 antibody) VH: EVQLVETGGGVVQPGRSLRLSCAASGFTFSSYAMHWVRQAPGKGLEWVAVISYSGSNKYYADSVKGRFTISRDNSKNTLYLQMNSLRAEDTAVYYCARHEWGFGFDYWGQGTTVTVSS VL: DVVMTQSPLSLPVTLGQPASISCRSSQSLVYGDGNTYLNWFQQRPGQSPRRLIYKVSNRDSGVPDRFSGSGSGTEFTLKISRVEAEDVGVYFCMQGTYWPGTFGGGTKLEIKR , EC50 observed: 1.4
